Quick reference for growth at 0.1 µM among some molecules
Tested on: NCI-H322M
Assay: Antiproliferative activity against human NCI-H322M cells assessed as cell growth at 10^-7 M after 48 hrs by sulforhodamine B assay
Format: functional
Conditions: read-out: Activity
The figure you give is taken to be in %; do not add the unit.

[[record]]
compound_string = "CNC(=O)c1cc(Oc2ccc3nc(NC(=O)Nc4cc(C(F)(F)F)cc(C(F)(F)F)c4)sc3c2)ccn1"
test_result = 102

[[record]]
compound_string = "CNC(=O)c1cc(Oc2ccc3nc(NC(=O)c4cc(C(F)(F)F)cc(C(F)(F)F)c4)sc3c2)ccn1"
test_result = 93

[[record]]
compound_string = "CNC(=O)c1cc(Oc2ccc3nc(NC(=O)Nc4ccc(Cl)c(Cl)c4)sc3c2)ccn1"
test_result = 87


# evaluate next
[Q] Entry CNC(=O)c1cc(Oc2ccc3nc(NC(=O)Nc4ccc(Cl)c(C(F)(F)F)c4)sc3c2)ccn1 has what growth at 0.1 µM?
[A] 103

----------
Quick reference for growth at 0.01 µM among some molecules
Tested on: NCI-H226
Test: Antiproliferative activity against human NCI-H226 cells assessed as cell growth at 10^-8 M after 48 hrs by sulforhodamine B assay
Type: functional
Conditions: NCI-H226, 48 h, read-out: Activity
The figure you give is taken to be in %; do not add the unit.

Some solved cases for reference:
[[record]]
compound_string = "CNC(=O)c1cc(Oc2ccc3nc(NC(=O)Nc4ccc(Cl)c(Cl)c4)sc3c2)ccn1"
measurement_kind = "growth at 0.01 µM"
test_result = 104

[[record]]
compound_string = "CNC(=O)c1cc(Oc2ccc3nc(NC(=O)Nc4cc(C(F)(F)F)cc(C(F)(F)F)c4)sc3c2)ccn1"
measurement_kind = "growth at 0.01 µM"
test_result = 84

[[record]]
compound_string = "CNC(=O)c1cc(Oc2ccc3nc(NC(=O)Nc4ccc(Cl)c(C(F)(F)F)c4)sc3c2)ccn1"
measurement_kind = "growth at 0.01 µM"
test_result = 93


[Q] Hello, I am looking for reported growth at 0.01 µM with NCI-H226 for CNC(=O)c1cc(Oc2ccc3nc(NC(=O)c4cc(C(F)(F)F)cc(C(F)(F)F)c4)sc3c2)ccn1 . Could you help?
[A] 99

----------
Experiment: Antiproliferative activity against human RXF393 cells assessed as growth inhibition after 48 hrs by sulforhodamine B assay
Format: functional
Conditions: RXF 393, 48 h
Quick reference for GI50 among some molecules
The figure you give is taken to be in nM; do not add the unit.

[[record]]
molecule = "CNC(=O)c1cc(Oc2ccc3nc(NC(=O)Nc4cc(C(F)(F)F)cc(C(F)(F)F)c4)sc3c2)ccn1"
test_result = 1250

[[record]]
molecule = "CNC(=O)c1cc(Oc2ccc(NC(=O)Nc3ccc(Cl)c(C(F)(F)F)c3)cc2)ccn1 [SORAFENIB]"
test_result = 3160

[[record]]
molecule = "CNC(=O)c1cc(Oc2ccc3nc(NC(=O)c4cc(C(F)(F)F)cc(C(F)(F)F)c4)sc3c2)ccn1"
test_result = 2790

[[record]]
molecule = "CNC(=O)c1cc(Oc2ccc3nc(NC(=O)Nc4ccc(Cl)c(Cl)c4)sc3c2)ccn1"
test_result = 1840


[Q] Entry CNC(=O)c1cc(Oc2ccc3nc(NC(=O)Nc4ccc(Cl)c(C(F)(F)F)c4)sc3c2)ccn1 has what GI50?
[A] 1930

----------
Tested on: NCI-H23
Assay: Antiproliferative activity against human NCI-H23 cells assessed as growth inhibition after 48 hrs by sulforhodamine B assay
Assay type: functional
Details: NCI-H23, 48 h
measurement-kind: LC50

[[record]]
compound_string = "CNC(=O)c1cc(Oc2ccc3nc(NC(=O)Nc4cc(C(F)(F)F)cc(C(F)(F)F)c4)sc3c2)ccn1"
test_result = "7.99 µM"

[[record]]
compound_string = "CNC(=O)c1cc(Oc2ccc3nc(NC(=O)c4cc(C(F)(F)F)cc(C(F)(F)F)c4)sc3c2)ccn1"
test_result = "> 100 µM"

[[record]]
compound_string = "CNC(=O)c1cc(Oc2ccc3nc(NC(=O)Nc4ccc(Cl)c(C(F)(F)F)c4)sc3c2)ccn1"
test_result = "> 100 µM"


# evaluate next
[Q] Entry CNC(=O)c1cc(Oc2ccc3nc(NC(=O)Nc4ccc(Cl)c(Cl)c4)sc3c2)ccn1 has what LC50?
[A] > 100 µM

----------
Quick reference for growth at 1 µM among some molecules
System: MDA-MB-231
Experiment: Antiproliferative activity against human MDA-MB-231 cells assessed as cell growth at 10^-6 M after 48 hrs by sulforhodamine B assay
Format: functional
Conditions: MDA-MB-231, 48 h, read-out: Activity

[[record]]
compound_string = "CNC(=O)c1cc(Oc2ccc3nc(NC(=O)Nc4ccc(Cl)c(Cl)c4)sc3c2)ccn1"
measurement_kind = "growth at 1 µM"
test_result = "85%"

[[record]]
compound_string = "CNC(=O)c1cc(Oc2ccc3nc(NC(=O)Nc4cc(C(F)(F)F)cc(C(F)(F)F)c4)sc3c2)ccn1"
measurement_kind = "growth at 1 µM"
test_result = "46%"

[[record]]
compound_string = "CNC(=O)c1cc(Oc2ccc3nc(NC(=O)c4cc(C(F)(F)F)cc(C(F)(F)F)c4)sc3c2)ccn1"
measurement_kind = "growth at 1 µM"
test_result = "114%"


# evaluate next
[Q] Entry CNC(=O)c1cc(Oc2ccc3nc(NC(=O)Nc4ccc(Cl)c(C(F)(F)F)c4)sc3c2)ccn1 has what growth at 1 µM?
[A] 66%

----------
Test system: MDA-MB-231
Experiment: Antiproliferative activity against human MDA-MB-231 cells assessed as cell growth at 10^-5 M after 48 hrs by sulforhodamine B assay
Assay type: functional
Conditions: MDA-MB-231, 48 h, read-out: Activity
# label = bin(measured growth at 10 µM), where bins are low bracket = under -20%, middle bracket = from -20% up to 80%, high bracket = 80% and over

Example cases with answers are listed next.
[[record]]
compound_string = "CNC(=O)c1cc(Oc2ccc3nc(NC(=O)Nc4ccc(C(F)(F)F)cc4)sc3c2)ccn1"
assigned_category = "middle bracket"

[[record]]
compound_string = "CNC(=O)c1cc(Oc2ccc3nc(NC(=O)Nc4cc(C(F)(F)F)cc(C(F)(F)F)c4)sc3c2)ccn1"
assigned_category = "low bracket"

[[record]]
compound_string = "CNC(=O)c1cc(Oc2ccc3nc(NC(=O)c4cccc(F)n4)sc3c2)ccn1"
assigned_category = "high bracket"

[[record]]
compound_string = "CNC(=O)c1cc(Oc2ccc3nc(NC(=O)Nc4ccc(Cl)c(C(F)(F)F)c4)sc3c2)ccn1"
assigned_category = "low bracket"

[[record]]
compound_string = "CNC(=O)c1cc(Oc2ccc3nc(NC(=O)c4ccc5c(c4)OCCO5)sc3c2)ccn1"
assigned_category = "high bracket"

[[record]]
compound_string = "CNC(=O)c1cc(Oc2ccc3nc(NC(=O)c4ccc(Cl)c(C(F)(F)F)c4)sc3c2)ccn1"
assigned_category = "middle bracket"

[[record]]
compound_string = "CNC(=O)c1cc(Oc2ccc3nc(NC(=O)Nc4ccc(F)cc4F)sc3c2)ccn1"
assigned_category = "middle bracket"

[[record]]
compound_string = "CNC(=O)c1cc(Oc2ccc3nc(NC(=O)c4ccc5ncccc5c4)sc3c2)ccn1"
assigned_category = "high bracket"


[Q] Assign a bin to CNC(=O)c1cc(Oc2ccc3nc(NC(=O)c4cc(C(F)(F)F)cc(C(F)(F)F)c4)sc3c2)ccn1
[A] low bracket

[Q] Assign a bin to CNC(=O)c1cc(Oc2ccc3nc(NC(=O)Nc4ccc(Cl)cc4)sc3c2)ccn1
[A] middle bracket

----------
Quick reference for TGI among some molecules
Assay: Antiproliferative activity against human UACC62 cells assessed as growth inhibition after 48 hrs by sulforhodamine B assay
Assay type: functional
Details: UACC-62, 48 h
The figure you give is taken to be in µM; do not add the unit.

[[record]]
molecule = "CNC(=O)c1cc(Oc2ccc3nc(NC(=O)Nc4cc(C(F)(F)F)cc(C(F)(F)F)c4)sc3c2)ccn1"
measurement_kind = "TGI"
output_unit = "µM"
test_result = 2.1

[[record]]
molecule = "CNC(=O)c1cc(Oc2ccc3nc(NC(=O)Nc4ccc(Cl)c(Cl)c4)sc3c2)ccn1"
measurement_kind = "TGI"
output_unit = "µM"
test_result = 7.76

[[record]]
molecule = "CNC(=O)c1cc(Oc2ccc3nc(NC(=O)c4cc(C(F)(F)F)cc(C(F)(F)F)c4)sc3c2)ccn1"
measurement_kind = "TGI"
output_unit = "µM"
test_result = 12.1


[Q] Entry CNC(=O)c1cc(Oc2ccc(NC(=O)Nc3ccc(Cl)c(C(F)(F)F)c3)cc2)ccn1 [SORAFENIB] has what TGI?
[A] 5.01

----------
System: K562
Assay: Antiproliferative activity against human K562 cells assessed as cell growth at 10^-7 M after 48 hrs by sulforhodamine B assay
Type: functional
Settings: K562, 48 h, read-out: Activity
measurement-kind: growth at 0.1 µM

Some solved cases for reference:
[[record]]
compound_string = "CNC(=O)c1cc(Oc2ccc3nc(NC(=O)Nc4ccc(Cl)c(C(F)(F)F)c4)sc3c2)ccn1"
measurement_kind = "growth at 0.1 µM"
test_result = "104%"

[[record]]
compound_string = "CNC(=O)c1cc(Oc2ccc3nc(NC(=O)Nc4ccc(Cl)c(Cl)c4)sc3c2)ccn1"
measurement_kind = "growth at 0.1 µM"
test_result = "98%"

[[record]]
compound_string = "CNC(=O)c1cc(Oc2ccc3nc(NC(=O)Nc4cc(C(F)(F)F)cc(C(F)(F)F)c4)sc3c2)ccn1"
measurement_kind = "growth at 0.1 µM"
test_result = "97%"


[Q] Entry CNC(=O)c1cc(Oc2ccc3nc(NC(=O)c4cc(C(F)(F)F)cc(C(F)(F)F)c4)sc3c2)ccn1 has what growth at 0.1 µM?
[A] 98%
